# tested.on: human farnesyl pyrophosphate synthase (FPPS) (Homo sapiens)
# Construct: made in house
# Sequence (P14324 67-419 limits assumed): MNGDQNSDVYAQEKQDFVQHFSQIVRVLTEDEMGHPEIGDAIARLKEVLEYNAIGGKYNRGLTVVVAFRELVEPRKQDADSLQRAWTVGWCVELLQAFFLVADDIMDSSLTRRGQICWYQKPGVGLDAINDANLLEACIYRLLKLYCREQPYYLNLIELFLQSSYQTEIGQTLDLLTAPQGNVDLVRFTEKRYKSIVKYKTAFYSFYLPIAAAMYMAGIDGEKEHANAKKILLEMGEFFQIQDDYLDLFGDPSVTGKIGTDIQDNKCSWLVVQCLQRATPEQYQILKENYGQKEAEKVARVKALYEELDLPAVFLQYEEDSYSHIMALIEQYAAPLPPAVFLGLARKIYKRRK
# protocol.details: FPPS inhibition
# Format: biochemical
# run.conditions: recombinant human FPPS; read-out: FPPS inhibition Ki (final inhibition constant)
Binary label based on Ki with cut-off 20 nM: below gives satisfied, not below gives not satisfied.

Consider the worked cases shown below.
1) CCc1nc2ccccn2c1CC(P(=O)(O)O)P(=O)(O)O [compound 75]    satisfied
2) Cc1ccn2c(CC(F)(P(=O)(O)O)P(=O)(O)O)cnc2c1 [compound 11]    satisfied
3) O=P(O)(O)C(Cc1cnc2ccccn12)P(=O)(O)O [compound 80]    satisfied
4) Cc1ccn2c(CC(P(=O)(O)O)P(=O)(O)O)cnc2c1 [compound 15]    satisfied
5) O=P(O)(O)C(Cc1cnc2ccc(F)cn12)P(=O)(O)O [compound 34]    satisfied

stdin: Consider O=P(O)(O)C(Cc1cnc2c(O)cccn12)P(=O)(O)O [compound 40] . Does its Ki lie strictly below 20 nM?
stdout: not satisfied

stdin: Consider Cc1ccc2ncc(CC(P(=O)(O)O)P(=O)(O)O)n2c1 [compound 81] . Does its Ki lie strictly below 20 nM?
stdout: not satisfied

stdin: Consider O=P(O)(O)C(F)(Cc1cnc2ccccn12)P(=O)(O)O [compound 23] . Does its Ki lie strictly below 20 nM?
stdout: satisfied
